System: α7 integrin (LacZ reporter in α7+/LacZ myotubes)
Measurement protocol: Myotube α7 integrin FDG assay (Burkin assay in myotubes, 96-well)
Type: cell-based, mouse
Condition context: 5 uM, myotubes
Outcome measure: Burkin Assay in Myotubes (signal relative to DMSO)

>>> result_value("C[C@H](NS(=O)(=O)c1ccc(Cl)cc1)C(=O)OCC(=O)c1ccc[nH]1")
1.154
>>> result_value("O=[N+]([O-])c1cccc(S(=O)(=O)N2CCN(S(=O)(=O)N3CCOCC3)CC2)c1")
1.103
>>> result_value("O=C(Nc1ccccc1)Nc1ccc(Cl)c(S(=O)(=O)N2CCOCC2)c1")
0.7118
>>> result_value("COc1ccc(C(=O)N/C(=C/c2cccnc2)C(=O)N2CCN(C)CC2)cc1OC")
1.083
>>> result_value("O=C(Nc1ccc(N2CCN(C(=O)c3ccccc3F)CC2)cc1)c1cncc(Br)c1")
1.318
>>> result_value("O=C(COc1cc2oc(=O)c3c(c2cc1Cl)CCCC3)NCC1CCC(C(=O)O)CC1 (stereo not drawn)")
1.031
>>> result_value("COCc1c(C(=O)OCc2nc3ccsc3c(=O)[nH]2)oc2ccccc12")
1.112
>>> result_value("C/C(=N\\Nc1nncc2ccccc12)c1cccc(OC(F)F)c1")
1.1
>>> result_value("O=C(N/N=C/c1cn[nH]c1-c1ccc(F)cc1)c1ccncc1")
1.013
>>> result_value("O=Cc1cn(Cc2ccc(F)cc2Cl)c2ccccc12")
0.7009
>>> result_value("COc1ccc(C(=O)O/N=C(\\N)c2cccc(C)c2)cc1OC")
1.166
>>> result_value("CCCC(=O)Nc1ccccc1NC(=O)c1ccc(OCC)cc1")
1.128
>>> result_value("COc1ccc(CNC(=O)CCN2C(=O)c3ccccc3C2=O)cc1")
1.121
>>> result_value("COc1cc(CNCc2ccc(C(=O)O)cc2)ccc1OCc1ccc(F)cc1.Cl")
1.124
>>> result_value("CCOCCCN1C(=O)CN(C2CCCCCC2)C(=O)C1c1ccc(OC)cc1 (stereo not drawn)")
0.8905
>>> result_value("S=c1[nH]nc(Cn2cnc3ccccc32)n1-c1ccccc1")
1.059
>>> result_value("CCCS(=O)(=O)N1CCCC(C(=O)c2cccc(Cl)c2)C1 (stereo not drawn)")
0.5941
>>> result_value("CC(C)N(CCO)C(=O)CCc1nnc(CCCc2ccccc2)o1")
0.8779
>>> result_value("O=C(CSc1nnc(C2CC2)n1C1CC1)c1cccs1")
1.092
>>> result_value("CS(=O)(=O)N(Cc1ccc(C(=O)NC2CCCC2)cc1)c1ccccc1")
1.131
>>> result_value("CC(NC(=O)c1cn(C)c2ccc(S(=O)(=O)N3CCCC3)cc2c1=O)c1ccccc1 (stereo not drawn)")
1.055
>>> result_value("CCNC(=O)COC(=O)c1cc(-c2ccco2)nc2ccccc12")
1.323
>>> result_value("C[C@H]1CNC(=O)c2c(C(=O)Nc3ccc(CNC(=O)OC(C)(C)C)cc3)ncn21")
1.422
>>> result_value("O=c1[nH]c(C2CCCN(S(=O)(=O)c3ccccc3)C2)nc2c1nnn2Cc1cccc(Cl)c1 (stereo not drawn)")
1.193
>>> result_value("NS(=O)(=O)c1ccc(NC(=O)c2cc(-c3ccccc3O)n[nH]2)cc1")
0.9442
>>> result_value("COc1ccccc1OCC(=O)Nc1cc2c(cc1C(=O)O)OCCCO2")
1.024
>>> result_value("C=CCN(CC=C)C(=O)c1ccc(OC2CCN(S(=O)(=O)N(C)C)CC2)cc1")
1.119
>>> result_value("Cc1ccccc1C(=O)Nc1scc(-c2ccc(Br)cc2)c1C(=O)O")
0.8908
>>> result_value("CCOc1cc(/C=C2\\C(=O)ON=C2c2ccccc2)ccc1OC")
1.002
>>> result_value("COc1cc(NC(=O)CN(C)S(=O)(=O)c2ccc3c(c2)CC(C)N3C(C)=O)cc(OC)c1OC (stereo not drawn)")
1.102
